Source: paper PMC10224544

Biological target: acetylcholinesterase (AChE) (Electrophorus electricus)
Sequence (O42275 24-633): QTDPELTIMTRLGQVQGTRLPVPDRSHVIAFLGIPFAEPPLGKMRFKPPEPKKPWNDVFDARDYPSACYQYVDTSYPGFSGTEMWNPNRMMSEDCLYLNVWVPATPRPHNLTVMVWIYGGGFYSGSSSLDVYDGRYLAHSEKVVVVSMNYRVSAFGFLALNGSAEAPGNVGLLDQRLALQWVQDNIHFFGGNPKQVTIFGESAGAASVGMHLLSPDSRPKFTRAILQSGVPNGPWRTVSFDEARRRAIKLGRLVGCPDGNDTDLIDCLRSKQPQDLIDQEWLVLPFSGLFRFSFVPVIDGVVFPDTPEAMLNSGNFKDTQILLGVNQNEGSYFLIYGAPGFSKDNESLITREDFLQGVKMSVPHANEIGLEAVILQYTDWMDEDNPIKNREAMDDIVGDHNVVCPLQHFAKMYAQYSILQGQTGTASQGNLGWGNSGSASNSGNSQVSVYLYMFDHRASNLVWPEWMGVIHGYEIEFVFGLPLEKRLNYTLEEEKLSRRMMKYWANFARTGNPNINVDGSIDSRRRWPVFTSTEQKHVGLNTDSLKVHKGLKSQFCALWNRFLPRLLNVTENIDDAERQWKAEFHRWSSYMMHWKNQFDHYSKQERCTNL
Assay: biochemical
Assay type: biochemical
Conditions: Comp. Conc. 500 µg/mL; n = 3
Please provide measured Inhibition of Acetylcholinesterase (%AChE Activity) for the entries that follow.
One number for each entry, in %.

compound="N#Cc1cccnc1.N#Cc1cccnc1.O=C([O-])Cc1cccc(Cl)c1.O=C([O-])Cc1cccc(Cl)c1.O=C([O-])Cc1cccc(Cl)c1.O=C([O-])Cc1cccc(Cl)c1.[Cu+2].[Cu+2] [Complex 4, Cu2(3-ClC6H4COO)4(3-CNPy)2]" reported_measurement=83.39
compound="O=C([O-])Cc1ccccc1Cl.O=C([O-])Cc1ccccc1Cl.O=C([O-])Cc1ccccc1Cl.O=C([O-])Cc1ccccc1Cl.Oc1ccncc1.Oc1ccncc1.[Cu+2].[Cu+2] [Complex 3, Cun(2-ClC6H4COO)4(4-OHPy)2]" reported_measurement=77.08
compound="O=C([O-])Cc1cccc(Cl)c1.O=C([O-])Cc1cccc(Cl)c1.O=C([O-])Cc1cccc(Cl)c1.O=C([O-])Cc1cccc(Cl)c1.Oc1ccncc1.Oc1ccncc1.[Cu+2].[Cu+2] [Complex 6, Cu2(3-ClC6H4COO)4(4-OHPy)2]" reported_measurement=72.32

# ---- query compound ----
Prompt line: Find the measured Inhibition of Acetylcholinesterase (%AChE Activity) of N#Cc1cccnc1.N#Cc1cccnc1.O=C([O-])Cc1ccccc1Cl.O=C([O-])Cc1ccccc1Cl.O=C([O-])Cc1ccccc1Cl.O=C([O-])Cc1ccccc1Cl.[Cu+2].[Cu+2] [Complex 1, Cu2(2-ClC6H4COO)4(3-CNPy)2] with acetylcholinesterase (AChE) (Electrophorus electricus) as test system.
Response line: 72.60
